Molecular target: T1, topo VI H2TH-EEE (Methanosarcina mazei, UniProt Q8PUB7;Q8PUB8 1-369;1-621, R263E;K268E;K308E)
T1 sequence 1: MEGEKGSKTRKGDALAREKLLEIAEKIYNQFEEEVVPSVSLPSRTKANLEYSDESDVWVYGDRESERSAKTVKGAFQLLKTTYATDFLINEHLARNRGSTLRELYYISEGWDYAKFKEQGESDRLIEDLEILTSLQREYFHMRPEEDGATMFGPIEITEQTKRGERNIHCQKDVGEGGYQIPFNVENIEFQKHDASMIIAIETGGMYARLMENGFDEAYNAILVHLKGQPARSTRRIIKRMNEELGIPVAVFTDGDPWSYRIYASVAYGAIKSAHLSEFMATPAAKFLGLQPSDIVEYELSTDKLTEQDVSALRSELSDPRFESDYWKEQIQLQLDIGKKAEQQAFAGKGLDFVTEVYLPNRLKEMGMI
T1 sequence 2: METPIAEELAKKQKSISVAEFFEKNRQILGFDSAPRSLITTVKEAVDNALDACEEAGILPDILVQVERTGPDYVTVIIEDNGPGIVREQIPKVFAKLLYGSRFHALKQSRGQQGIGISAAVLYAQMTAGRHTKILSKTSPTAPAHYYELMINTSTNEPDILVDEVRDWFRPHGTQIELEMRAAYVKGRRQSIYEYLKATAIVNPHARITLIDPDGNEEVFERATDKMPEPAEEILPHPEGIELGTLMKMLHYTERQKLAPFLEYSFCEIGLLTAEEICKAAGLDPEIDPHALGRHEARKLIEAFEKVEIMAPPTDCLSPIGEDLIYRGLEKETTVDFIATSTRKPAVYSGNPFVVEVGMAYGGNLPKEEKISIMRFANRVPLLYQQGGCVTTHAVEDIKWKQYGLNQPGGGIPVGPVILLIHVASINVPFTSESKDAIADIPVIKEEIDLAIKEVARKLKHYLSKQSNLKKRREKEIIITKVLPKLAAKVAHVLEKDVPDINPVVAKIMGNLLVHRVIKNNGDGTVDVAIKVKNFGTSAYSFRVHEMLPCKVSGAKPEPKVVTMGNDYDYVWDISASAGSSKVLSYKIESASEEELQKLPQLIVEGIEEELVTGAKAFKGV
Experiment: fluorescence anisotropy; Fluorescence anisotropy, 20 nM FAM-labelled DNA, topo VI 0 and 3.9-4000 nM, no nucleotide; buffer, salt, pH and temperature not given in supplied text
Settings: protein: recombinant; tags: N-terminal His6-TEV on Top6B, removed; chain copies: 2;2; label: 5'-FAM strand 2; four-way Holliday junction, stacked-X, two GAAA-capped arms
MEASURED_PARAMETER: pKd
Recall that pKd is obtained by taking minus log10 of the concentration measured in molar.

(Q) Item 16 x 20 bp stacked junction (structured_DNA) DNA 1: CGAATACTCAGCTCAACCGAAAGGTTGAGCCTTCGCTCGAAAGAGCGAAGTACTCTTCCG DNA 2: CGGAAGAGTATGAGTATTCG has what recorded pKd?
(A) 7.05

Every entry's value here was drawn from paper PMC5922973.
